Where these numbers come from: paper PMC9571063

Listing: remaining activity at 10 µM of selected compounds
# MEASUREMENT TARGET: HsDYRK1A (Homo sapiens, UniProt Q13627)
# Construct: host or cells: Sf9 insect cells (baculovirus)
# ASSAY NAME: ADP-Glo kinase assay
# Format: biochemical
# TEST CONTEXT: 10 µM, n=2; read-out: % of residual activity Hs_DYRK1A
Numeric answer only, unit % assumed.

Test item N[C@H]1CC[C@@H](n2cc(COc3cccc4cnc(Nc5cc(Cl)cc(Cl)c5)nc34)nn2)CC1 [16b] ; HsDYRK1A (Homo sapiens, UniProt Q13627); reported remaining activity at 10 µM was 38

###

# MEASUREMENT TARGET: Hs_HASPIN (Homo sapiens, UniProt Q8TF76)
# Construct: host or cells: bacteria
# Sequence (Q8TF76 whole entry): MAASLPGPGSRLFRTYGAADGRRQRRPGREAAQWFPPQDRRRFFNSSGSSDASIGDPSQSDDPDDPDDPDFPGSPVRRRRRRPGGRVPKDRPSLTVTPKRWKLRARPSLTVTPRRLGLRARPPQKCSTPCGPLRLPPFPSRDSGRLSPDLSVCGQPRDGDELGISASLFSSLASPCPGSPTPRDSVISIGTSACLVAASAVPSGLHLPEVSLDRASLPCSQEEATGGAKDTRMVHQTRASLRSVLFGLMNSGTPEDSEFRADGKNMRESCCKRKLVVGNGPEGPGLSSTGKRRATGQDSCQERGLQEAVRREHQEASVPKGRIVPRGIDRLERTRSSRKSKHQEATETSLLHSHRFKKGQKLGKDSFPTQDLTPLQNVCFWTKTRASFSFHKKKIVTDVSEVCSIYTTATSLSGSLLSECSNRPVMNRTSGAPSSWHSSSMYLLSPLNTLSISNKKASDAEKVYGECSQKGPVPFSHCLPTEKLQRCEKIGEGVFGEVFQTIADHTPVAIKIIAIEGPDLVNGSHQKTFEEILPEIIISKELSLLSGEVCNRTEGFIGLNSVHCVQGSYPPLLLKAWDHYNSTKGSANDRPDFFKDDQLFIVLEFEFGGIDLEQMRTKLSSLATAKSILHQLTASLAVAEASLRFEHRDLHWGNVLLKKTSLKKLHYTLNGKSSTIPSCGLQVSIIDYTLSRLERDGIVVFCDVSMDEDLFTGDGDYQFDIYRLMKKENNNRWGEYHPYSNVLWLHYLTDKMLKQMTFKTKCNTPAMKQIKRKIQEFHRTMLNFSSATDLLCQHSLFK
# ASSAY NAME: ADP-Glo kinase assay, primary screen
# Assay type: biochemical
# TEST CONTEXT: 1 µM, n=2; read-out: % of residual activity Hs_HASPIN
Listing: remaining activity at 1 µM of selected compounds
Numeric answer only, unit % assumed.

remaining activity at 1 µM for O=[N+]([O-])c1cc(Br)ccc1-n1cc(COc2cccc3cnc(Nc4cccc(Cl)c4)nc23)nn1 [12d] is 91

remaining activity at 1 µM for CC(C)(C)OC(=O)N[C@H]1CC[C@@H](n2cc(COc3cccc4cnc(Nc5cc(Cl)cc(Cl)c5)nc34)nn2)CC1 [15b] is 89

remaining activity at 1 µM for CC(C)(C)OC(=O)N[C@H]1CC[C@H](n2cc(COc3cccc4cnc(Nc5cc(Cl)cc(Cl)c5)nc34)nn2)CC1 [18b] is 72

remaining activity at 1 µM for N[C@H]1CC[C@@H](n2cc(COc3cccc4cnc(Nc5cc(Cl)cc(Cl)c5)nc34)nn2)CC1 [16b] is 76

remaining activity at 1 µM for N[C@H]1CC[C@H](n2cc(COc3cccc4cnc(Nc5cccc(Cl)c5)nc34)nn2)CC1 [19a] is 70

remaining activity at 1 µM for COC(=O)c1ccc(-n2cc(COc3cccc4cnc(Nc5cccc(Cl)c5)nc34)nn2)c([N+](=O)[O-])c1 [12f] is 73

remaining activity at 1 µM for Cc1ccc(-n2cc(COc3cccc4cnc(Nc5cc(Cl)cc(Cl)c5)nc34)nn2)c([N+](=O)[O-])c1 [7b] is 81

###

# MEASUREMENT TARGET: Hs_CK1ε (Homo sapiens, UniProt P49674)
# Construct: host or cells: Sf9 insect cells (baculovirus)
# Sequence (P49674 whole entry): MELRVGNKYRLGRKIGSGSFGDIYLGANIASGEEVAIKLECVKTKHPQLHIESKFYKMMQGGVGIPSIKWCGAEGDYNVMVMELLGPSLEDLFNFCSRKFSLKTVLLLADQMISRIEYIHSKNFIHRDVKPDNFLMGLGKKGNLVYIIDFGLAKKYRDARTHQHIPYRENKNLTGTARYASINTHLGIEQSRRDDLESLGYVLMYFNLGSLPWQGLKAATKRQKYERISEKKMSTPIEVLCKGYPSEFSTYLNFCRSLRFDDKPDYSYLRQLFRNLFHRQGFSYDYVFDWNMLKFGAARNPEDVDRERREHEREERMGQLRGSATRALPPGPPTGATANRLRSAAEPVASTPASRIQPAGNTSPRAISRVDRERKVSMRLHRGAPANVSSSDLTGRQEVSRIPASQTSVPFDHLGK
# ASSAY NAME: ADP-Glo kinase assay, primary screen
# Type: biochemical
# TEST CONTEXT: 1 µM, n=2; read-out: % of residual activity Hs_CK1ε
Just a reminder that ties go to No: only remaining activity at 1 µM strictly below 90% counts as Yes.

Completed entries (count: 3):
• N[C@H]1CC[C@H](n2cc(COc3cccc4cnc(Nc5cc(Cl)cc(Cl)c5)nc34)nn2)CC1 [19b] = Yes
• Cc1ccc(-n2cc(COc3cccc4cnc(Nc5ccccc5)nc34)nn2)c([N+](=O)[O-])c1 = No
• O=[N+]([O-])c1cc(CO)ccc1-n1cc(COc2cccc3cnc(Nc4cccc(Cl)c4)nc23)nn1 [12e] = No

Item O=[N+]([O-])c1cc(Br)ccc1-n1cc(COc2cccc3cnc(Nc4cccc(Cl)c4)nc23)nn1 [12d] : remaining activity at 1 µM beneath 90%, strictly?
No

Item O=[N+]([O-])c1cc(O)ccc1-n1cc(COc2cccc3cnc(Nc4cccc(Cl)c4)nc23)nn1 [12c] : remaining activity at 1 µM beneath 90%, strictly?
No

Item N[C@H]1CC[C@@H](n2cc(COc3cccc4cnc(Nc5cccc(Cl)c5)nc34)nn2)CC1 [16a] : remaining activity at 1 µM beneath 90%, strictly?
Yes

Item COC(=O)c1ccc(-n2cc(COc3cccc4cnc(Nc5cccc(Cl)c5)nc34)nn2)c([N+](=O)[O-])c1 [12f] : remaining activity at 1 µM beneath 90%, strictly?
No

Item N[C@H]1CC[C@H](n2cc(COc3cccc4cnc(Nc5cccc(Cl)c5)nc34)nn2)CC1 [19a] : remaining activity at 1 µM beneath 90%, strictly?
Yes

###

Below are pIC50 values measured for HsCLK3 (Homo sapiens, UniProt P49761).
Hey, just a heads up that pIC50 is the negative log base 10 of the concentration in molar.

* O=C(O)c1ccc(-n2cc(COc3cccc4cnc(Nc5cccc(Cl)c5)nc34)nn2)c([N+](=O)[O-])c1 [12g] | 6.47
* N[C@H]1CC[C@@H](n2cc(COc3cccc4cnc(Nc5cc(Cl)cc(Cl)c5)nc34)nn2)CC1 [16b] | 5.49

pIC50 for Cc1ccc(-n2cc(COc3cccc4cnc(Nc5cc(Cl)cc(Cl)c5)nc34)nn2)c([N+](=O)[O-])c1 is 5.48

###

# MEASUREMENT TARGET: Hs_PIM1 (Homo sapiens, UniProt P11309)
# Construct: host or cells: Sf9 insect cells (baculovirus)
# Sequence (P11309 whole entry): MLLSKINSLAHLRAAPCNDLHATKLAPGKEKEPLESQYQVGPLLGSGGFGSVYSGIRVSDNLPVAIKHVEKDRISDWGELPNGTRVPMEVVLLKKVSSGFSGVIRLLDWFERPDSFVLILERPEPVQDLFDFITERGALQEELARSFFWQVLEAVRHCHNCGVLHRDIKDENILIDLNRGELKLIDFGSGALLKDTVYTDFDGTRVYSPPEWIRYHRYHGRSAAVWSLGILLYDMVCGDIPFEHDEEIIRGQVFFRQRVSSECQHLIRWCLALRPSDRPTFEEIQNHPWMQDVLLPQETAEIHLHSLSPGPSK
# ASSAY NAME: ADP-Glo kinase assay, primary screen
# Format: biochemical
# TEST CONTEXT: 1 µM, n=2; read-out: % of residual activity Hs_PIM1
Just a reminder that ties go to not satisfied: only remaining activity at 1 µM strictly below 80% counts as satisfied.

• CC(C)(C)OC(=O)N[C@H]1CC[C@H](n2cc(COc3cccc4cnc(Nc5cccc(Cl)c5)nc34)nn2)CC1 [18a] = satisfied
• N[C@H]1CC[C@H](n2cc(COc3cccc4cnc(Nc5cccc(Cl)c5)nc34)nn2)CC1 [19a] = satisfied
• O=[N+]([O-])c1cc(Br)ccc1-n1cc(COc2cccc3cnc(Nc4cccc(Cl)c4)nc23)nn1 [12d] = not satisfied

Item CC(C)(C)OC(=O)N[C@H]1CC[C@H](n2cc(COc3cccc4cnc(Nc5cc(Cl)cc(Cl)c5)nc34)nn2)CC1 [18b] : remaining activity at 1 µM beneath 80%, strictly?
not satisfied

Item O=[N+]([O-])c1cc(O)ccc1-n1cc(COc2cccc3cnc(Nc4cccc(Cl)c4)nc23)nn1 [12c] : remaining activity at 1 µM beneath 80%, strictly?
satisfied

Item CC(C)(C)OC(=O)N[C@H]1CC[C@@H](n2cc(COc3cccc4cnc(Nc5cc(Cl)cc(Cl)c5)nc34)nn2)CC1 [15b] : remaining activity at 1 µM beneath 80%, strictly?
satisfied

Item N[C@H]1CC[C@@H](n2cc(COc3cccc4cnc(Nc5cc(Cl)cc(Cl)c5)nc34)nn2)CC1 [16b] : remaining activity at 1 µM beneath 80%, strictly?
satisfied

Item CC(C)(C)OC(=O)N[C@H]1CC[C@@H](n2cc(COc3cccc4cnc(Nc5cccc(Cl)c5)nc34)nn2)CC1 [15a] : remaining activity at 1 µM beneath 80%, strictly?
not satisfied

###

# MEASUREMENT TARGET: Hs_CDK5/p25 (Homo sapiens)
# Construct: host or cells: bacteria
# Sequence (Q00535 whole entry): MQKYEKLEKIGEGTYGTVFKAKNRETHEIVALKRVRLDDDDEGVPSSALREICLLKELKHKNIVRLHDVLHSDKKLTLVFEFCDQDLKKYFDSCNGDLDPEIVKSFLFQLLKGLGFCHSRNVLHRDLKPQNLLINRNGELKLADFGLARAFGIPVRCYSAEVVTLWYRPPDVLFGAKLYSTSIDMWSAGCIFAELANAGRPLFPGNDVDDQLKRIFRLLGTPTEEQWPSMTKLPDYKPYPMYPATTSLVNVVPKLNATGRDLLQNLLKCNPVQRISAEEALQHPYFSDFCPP
# Sequence (Q15078 99-307 partner limits assumed): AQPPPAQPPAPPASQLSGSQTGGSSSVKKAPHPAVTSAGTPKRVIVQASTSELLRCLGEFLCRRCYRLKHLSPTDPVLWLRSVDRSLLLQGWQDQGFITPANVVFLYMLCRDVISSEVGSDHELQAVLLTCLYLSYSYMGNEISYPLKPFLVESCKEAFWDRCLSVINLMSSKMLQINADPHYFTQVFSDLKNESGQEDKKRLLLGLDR
# ASSAY NAME: ADP-Glo kinase assay, primary screen
# Assay type: biochemical
# TEST CONTEXT: 1 µM, n=2; read-out: % of residual activity Hs_CDK5/p25
Just a reminder that ties go to label 0: only remaining activity at 1 µM strictly below 80% counts as label 1.

Completed entries (count: 3):
* N[C@H]1CC[C@@H](n2cc(COc3cccc4cnc(Nc5cccc(Cl)c5)nc34)nn2)CC1 [16a] | label 1
* N[C@H]1CC[C@H](n2cc(COc3cccc4cnc(Nc5cc(Cl)cc(Cl)c5)nc34)nn2)CC1 [19b] | label 0
* O=C(O)c1ccc(-n2cc(COc3cccc4cnc(Nc5cccc(Cl)c5)nc34)nn2)c([N+](=O)[O-])c1 [12g] | label 1

Item N[C@H]1CC[C@H](n2cc(COc3cccc4cnc(Nc5cccc(Cl)c5)nc34)nn2)CC1 [19a] : remaining activity at 1 µM beneath 80%, strictly?
label 0

Item Cc1ccc(-n2cc(COc3cccc4cnc(Nc5ccccc5)nc34)nn2)c([N+](=O)[O-])c1 : remaining activity at 1 µM beneath 80%, strictly?
label 0

Item Cc1ccc(-n2cc(COc3cccc4cnc(Nc5cc(Cl)cc(Cl)c5)nc34)nn2)c([N+](=O)[O-])c1 : remaining activity at 1 µM beneath 80%, strictly?
label 0

Item O=[N+]([O-])c1cc(Br)ccc1-n1cc(COc2cccc3cnc(Nc4cccc(Cl)c4)nc23)nn1 [12d] : remaining activity at 1 µM beneath 80%, strictly?
label 0

Item CC(C)(C)OC(=O)N[C@H]1CC[C@@H](n2cc(COc3cccc4cnc(Nc5cccc(Cl)c5)nc34)nn2)CC1 [15a] : remaining activity at 1 µM beneath 80%, strictly?
label 0

Item N[C@H]1CC[C@@H](n2cc(COc3cccc4cnc(Nc5cc(Cl)cc(Cl)c5)nc34)nn2)CC1 [16b] : remaining activity at 1 µM beneath 80%, strictly?
label 0

Item O=[N+]([O-])c1cc(CO)ccc1-n1cc(COc2cccc3cnc(Nc4cccc(Cl)c4)nc23)nn1 [12e] : remaining activity at 1 µM beneath 80%, strictly?
label 0

Item CC(C)(C)OC(=O)N[C@H]1CC[C@H](n2cc(COc3cccc4cnc(Nc5cccc(Cl)c5)nc34)nn2)CC1 [18a] : remaining activity at 1 µM beneath 80%, strictly?
label 1

Item COC(=O)c1ccc(-n2cc(COc3cccc4cnc(Nc5cccc(Cl)c5)nc34)nn2)c([N+](=O)[O-])c1 [12f] : remaining activity at 1 µM beneath 80%, strictly?
label 0
